# System Name: UniProtKB P11229
# Sequence (P11229 whole entry): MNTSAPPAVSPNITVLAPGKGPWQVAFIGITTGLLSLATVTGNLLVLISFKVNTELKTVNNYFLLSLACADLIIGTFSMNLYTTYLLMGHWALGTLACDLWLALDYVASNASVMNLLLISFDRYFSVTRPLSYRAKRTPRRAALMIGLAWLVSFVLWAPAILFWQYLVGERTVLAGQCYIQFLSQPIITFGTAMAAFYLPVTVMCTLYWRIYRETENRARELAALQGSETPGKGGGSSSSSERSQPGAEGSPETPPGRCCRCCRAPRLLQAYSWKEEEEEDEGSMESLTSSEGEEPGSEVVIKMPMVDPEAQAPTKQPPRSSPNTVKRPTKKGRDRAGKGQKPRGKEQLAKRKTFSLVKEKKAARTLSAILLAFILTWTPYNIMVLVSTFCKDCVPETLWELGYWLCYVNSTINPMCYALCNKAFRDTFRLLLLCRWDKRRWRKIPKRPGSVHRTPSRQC
# Assay Remarks: M1 FLIPR assay (PAM, intracellular calcium)
# Type: cell-based
# Study Conditions: potentiation of EC10-EC30 acetylcholine, values marked a: geometric mean of ≧7 determinations, read-out: M1 PAM Inflection Point (μM) Geometric mean of 2-6 determinations (unless otherwise indicated)
Each entry below carries its reported EC50.
Result Type: EC50 (µM)

- Cc1nc(-c2ccc(Cc3cc(C(=O)N[C@H]4CCOC[C@@H]4O)ncc3C)cc2)no1 [Example 19]: 5.57
- Cc1cnc(C(=O)N[C@H]2CCOC[C@@H]2O)cc1Cc1ccc(-c2ccn(C)n2)cc1 [Example 6]: 0.142
- Cc1cnc(C(=O)NC2CCCCC2(F)F)cc1Cc1ccc(-n2cccn2)cc1 (single isomer, unassigned) [Example 46]: 1.22
- Cc1cnc(C(=O)N[C@H]2CCOC[C@@H]2O)cc1Cc1ccc(-c2cocn2)cc1 [Example 57]: 0.144
